Recorded GI50 for the following substances
System: SF-295
Experiment: NCI tumour cell line growth inhibition, 48 h
In all, about 58,000 sequences went through this assay and about 4,000 (6.9%) were called active. A selection follows. Measured potencies and affinities stand elsewhere.
Parameter: GI50 (µM)

> print(dat)
                                  substance  study.target  quantitative.readout
1  [Bis(aminomethyl)dimethylsilane]dichloroplatinum (II), CHEMBL2146201        SF-295                  11.9
2  [Bis(aminomethyl)diethylsilane]tetrachloroplatinum(IV), CHEMBL2146203        SF-295                  3.37
3  mu-(1,7-nanodiamine-N,N')bis-(cis-aminedichloroplatimum (II)), CHEMBL2146215        SF-295                  14.3
4  [Bis(aminomethyl)ethylmethylsilane]tetrachloroplatinum(IV), CHEMBL2146192        SF-295                  3.17
5                    CISPLATIN, CHEMBL11359        SF-295                 0.912
6  [Bis(aminomethyl)pentamethylenesilane]dichloropaltinum(II), CHEMBL2146202        SF-295                  2.65
